# System: ACHN renal
# Measurement Protocol: NCI tumour cell line growth inhibition, 48 h
*1 amine or outer side, *2 acyl side, *3 side chain or, on linkers, in order; H or OH if unused. Where a SMILES comes first, the peptide text is derived from it. [ ]: non-standard residue; d: D form. The star is where a group is joined. ξ: configuration not given here. X53 = CC(C)C[C@H](N[*:1])C1=N[C@H](C(=O)[*:2])CS1; Ile(3ξ) = CCC(C)[C@H](N)C(=O)O; Allyl(1,1-Me2) = C=CC(C)(C)*
Task for the reader: assign each of the following molecules its reported TGI.

Molecule	Result
COc1cc(Nc2cc(O)c3c(=O)cc(-c4ccccc4)oc3c2)cc(OC)c1	> 100 µM
C1C[OH+]CCNCC[OH+]CC[OH+]CCN1.O.[Cl-].[Pt+4]	> 100 µM
CCC1(O)C(=O)OCc2c1cc1n(c2=O)Cc2cc3cc(OC)c(OC)cc3nc2-1 (stereo unspecified)	37.3 µM
O=C(Nc1ccn(C2CCC(CO)O2)c(=O)n1)c1ccccc1 (stereo unspecified)	> 100 µM
O=[N+]([O-])c1ccc(NC(=S)N=Nc2c(O)[nH]c3ccccc23)cc1	21.1 µM
N#CC1(C#N)C(c2ccc(C3C(C#N)(C#N)C3(C#N)C#N)cc2)C1(C#N)C#N	> 100 µM
Cc1cccc(NS(=O)(=O)c2ccc3c(c2)OCCOCCOCCOCCO3)c1	> 100 µM
COc1cc(/C=C/c2cc(/C=C/c3ccc(O)c(OC)c3)n(C(=O)Cc3ccccc3)n2)ccc1O	29.2 µM
C#CCn1c(=O)[nH]c(=O)c2cccnc21	> 100 µM
C=CC(C)(C)OC[C@@H]1NC(=O)CNC(=O)[C@@H]2CCCN2C(=O)[C@H](C(C)CC)NC(=O)[C@@H]2CSC(=N2)[C@H](CC(C)C)NC1=O (stereo partly specified) (cyclo(GS(Allyl(1,1-Me2))[X53][Ile(3ξ)]P))	> 100 µM

Can you give me TGI for all of these, one by one?
1. COc1ccc(-c2cc(C(=O)N3N=C(c4ccc(N)cc4)CC3c3ccc(Cl)cc3)c3ccccc3n2)cc1 (stereo unspecified)
2. CN(c1ccc(C(=O)O)cc1)c1cc(O/N=[N+](\[O-])N(C)C)c([N+](=O)[O-])cc1[N+](=O)[O-]
3. COc1ccccc1N=NC(C(=O)c1ccccc1)C(=O)c1ccccc1
4. O=C1c2ccc3c4ccc5c6c(ccc(c7ccc(c2c37)C(=O)N1CCN1CCCCC1)c64)C(=O)N(CCN1CCCCC1)C5=O
5. O=C1c2ccccc2C(=O)N1[C@@H](Cc1ccccc1)C(=O)n1cccc1CO

> 100 µM
14.1 µM
83.6 µM
> 100 µM
> 100 µM

* * *

Task for the reader: assign each of the following compounds its reported GI50.
# Tested on: OVCAR-3 ovarian
# Measurement Protocol: NCI tumour cell line growth inhibition, 48 h

Observe how each entry below is paired with its result.
Compound	Subject Of Test	Quantity	Result
COc1cc(/C=C/c2cc(/C=C/c3ccc(O)c(OC)c3)n(C(=O)Cc3ccccc3)n2)ccc1O	OVCAR-3 ovarian	GI50	1120 nM
C1C[OH+]CCNCC[OH+]CC[OH+]CCN1.O.[Cl-].[Pt+4]	OVCAR-3 ovarian	GI50	> 100000 nM
CN(C)CCCNc1nc2ccccc2c2c(=O)c3cc(F)ccc3sc12	OVCAR-3 ovarian	GI50	1670 nM
CCC(=O)OCC1OC(n2cnc3c(=S)nc(N)[nH]c32)C(OC(=O)CC)C1OC(=O)CC (stereo not drawn)	OVCAR-3 ovarian	GI50	3030 nM

Can you give me GI50 for all of these, one by one?
1. COc1ccc(/C=C/C(=O)c2c(O)c(C)c(O)c3c2OC2=CC(O)=C(C(C)=O)C(=O)[C@]23C)cc1
2. CO[C@H]1/C=C/[C@@](C)(O)/C=C/C(=O)O[C@H](C)[C@@H](C)CC/C=C/1C
3. COc1ccccc1/C=C/C(=O)c1ccc(Nc2nc(Nc3ccc(F)cc3)nc(Nc3ccc(F)cc3)n2)cc1
4. Cn1c([N+](=O)[O-])cnc1/C=C1\Oc2ccc(Br)cc2C1=O

1. 649 nM
2. 11300 nM
3. 22200 nM
4. 276 nM
